Where these numbers come from: paper PMC9508125

- Measured target: HvExoI W286F/W434A mutant (Hordeum vulgare, UniProt Q9XEI3, W311F/W459A)
- Sequence (Q9XEI3 26-630 W311F/W459A): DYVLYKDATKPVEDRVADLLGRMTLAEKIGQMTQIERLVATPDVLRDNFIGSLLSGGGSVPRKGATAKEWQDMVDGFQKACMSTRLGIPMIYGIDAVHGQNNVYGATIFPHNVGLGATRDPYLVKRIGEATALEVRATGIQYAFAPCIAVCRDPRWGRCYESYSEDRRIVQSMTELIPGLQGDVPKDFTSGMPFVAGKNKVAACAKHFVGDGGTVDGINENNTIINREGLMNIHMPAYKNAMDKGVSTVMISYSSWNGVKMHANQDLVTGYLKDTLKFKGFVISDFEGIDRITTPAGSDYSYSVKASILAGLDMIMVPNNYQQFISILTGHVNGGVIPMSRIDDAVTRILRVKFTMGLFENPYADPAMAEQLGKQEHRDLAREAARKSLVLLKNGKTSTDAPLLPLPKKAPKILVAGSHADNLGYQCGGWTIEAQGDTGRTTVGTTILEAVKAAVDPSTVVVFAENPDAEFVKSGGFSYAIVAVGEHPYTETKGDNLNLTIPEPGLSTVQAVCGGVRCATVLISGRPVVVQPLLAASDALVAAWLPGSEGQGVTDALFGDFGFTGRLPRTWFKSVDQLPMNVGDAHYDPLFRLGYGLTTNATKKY
- Assay name: Relative rates of hydrolysis of poly-, oligosaccharides and aryl-glycosides
- Format: biochemical
- Protocol conditions: substance is the substrate, nd = activity not detected
The entries below are paired with their reported Activity (relative rate of hydrolysis).
Give the value, in units of μmole/min per mg protein, as a plain number.

// worked examples, Activity (relative rate of hydrolysis) included
{"Compound": "OC[C@H]1O[C@@H](O[C@H]2[C@H](O)[C@@H](O)[C@H](O[C@H]3[C@H](O)[C@@H](O)[C@H](O[C@H]4[C@H](O)[C@@H](O)C(O)O[C@@H]4CO)O[C@@H]3CO)O[C@@H]2CO)[C@H](O)[C@@H](O)[C@@H]1O (some centres unmarked)", "Activity (relative rate of hydrolysis) [μmole/min per mg protein]": 0.1}
{"Compound": "O=[N+]([O-])c1ccc(O[C@@H]2O[C@H](CO)[C@@H](O)[C@H](O)[C@H]2O)cc1 [4NP-Glc, 4-nitrophenyl β-D-glucopyranoside]", "Activity (relative rate of hydrolysis) [μmole/min per mg protein]": 1.8}
{"Compound": "OC[C@H]1O[C@@H](O[C@H]2[C@H](O)[C@@H](O)[C@H](O[C@H]3[C@H](O)[C@@H](O)C(O)O[C@@H]3CO)O[C@@H]2CO)[C@H](O)[C@@H](O)[C@@H]1O (some centres unmarked)", "Activity (relative rate of hydrolysis) [μmole/min per mg protein]": 0.01}
{"Compound": "OC[C@H]1O[C@@H](O[C@H]2[C@H](O)[C@@H](O)[C@H](O[C@H]3[C@H](O)[C@@H](O)[C@H](O[C@H]4[C@H](O)[C@@H](O)[C@H](O[C@H]5[C@H](O)[C@@H](O)[C@H](O[C@H]6[C@H](O)[C@@H](O)C(O)O[C@@H]6CO)O[C@@H]5CO)O[C@@H]4CO)O[C@@H]3CO)O[C@@H]2CO)[C@H](O)[C@@H](O)[C@@H]1O (some centres unmarked)", "Activity (relative rate of hydrolysis) [μmole/min per mg protein]": 0.01}

Next compound, Activity (relative rate of hydrolysis) to be filled in.
Asked: Kindly indicate its recorded Activity (relative rate of hydrolysis). Item: OC[C@H]1O[C@@H](O[C@H]2[C@H](O)[C@@H](CO)OC(O)[C@@H]2O)[C@H](O)[C@@H](O)[C@@H]1O (some centres unmarked)
Given back: 0.1

----------
- Measured target: HvExoI W286F/W434A mutant (Hordeum vulgare, UniProt Q9XEI3, W311F/W459A)
- Assay name: Relative rates of hydrolysis of poly-, oligosaccharides and aryl-glycosides
- Format: biochemical
- Protocol conditions: substance is the substrate, nd = activity not detected
- Experimental: Dependency of activities of WT and mutant HvExoI on pH (McIlvaine buffers in the pH range of 3.5–8.5 at 30 °C) and temperature (100 mM sodium acetate buffer, pH 5.25, temperature range 0–80 °C, 15 min incubations) were determined using 0.2% (w/v) 4NP-Glc[21],[59]. Relative rates of hydrolysis of β-linked poly-, oligosaccharides, and aryl-glucosides were determined using near-homogenous HvExoI at 50 pmoles. […]
Readout type: Activity (relative rate of hydrolysis) (μmole/min per mg protein)
Report the figure in μmole/min per mg protein without appending any unit label.

Worked cases, Activity (relative rate of hydrolysis) given:
{"Compound": "OC[C@H]1O[C@@H](O[C@H]2C(O)O[C@H](CO)[C@@H](O)[C@@H]2O)[C@H](O)[C@@H](O)[C@@H]1O (stereo partly shown)", "Readout value": 0.02}
{"Compound": "OC[C@H]1O[C@@H](O[C@@H]2[C@@H](O)[C@H](O[C@@H]3[C@@H](O)[C@H](O[C@@H]4[C@@H](O)[C@H](O[C@@H]5[C@@H](O)[C@H](O[C@@H]6[C@@H](O)[C@H](O[C@@H]7[C@@H](O)[C@H](O)O[C@H](CO)[C@H]7O)O[C@H](CO)[C@H]6O)O[C@H](CO)[C@H]5O)O[C@H](CO)[C@H]4O)O[C@H](CO)[C@H]3O)O[C@H](CO)[C@H]2O)[C@H](O)[C@@H](O)[C@@H]1O", "Readout value": 0.1}
{"Compound": "OC[C@H]1O[C@@H](O[C@H]2[C@H](O)[C@@H](O)[C@H](O[C@H]3[C@H](O)[C@@H](O)[C@H](O[C@H]4[C@H](O)[C@@H](O)[C@H](O[C@H]5[C@H](O)[C@@H](O)C(O)O[C@@H]5CO)O[C@@H]4CO)O[C@@H]3CO)O[C@@H]2CO)[C@H](O)[C@@H](O)[C@@H]1O (stereo partly shown)", "Readout value": 0.01}

Pending compound:
Asked: Give Activity (relative rate of hydrolysis) for this entry on HvExoI W286F/W434A mutant (Hordeum vulgare, UniProt Q9XEI3, W311F/W459A): OC[C@H]1O[C@@H](O[C@@H]2[C@@H](O)[C@H](O[C@H]3[C@H](O)[C@@H](CO)OC(O)[C@@H]3O)O[C@H](CO)[C@H]2O)[C@H](O)[C@@H](O)[C@@H]1O (stereo partly shown)
Given back: 0.1
